Experiment: Toxicity liver stage against HepG2, at 10uM
Format: cell-based
Design: test concentration 10 uM, cell line HepG2-A16-CD81EGFP
Conditions: human, HepG2-A16-CD81EGFP cells; read-out: INHIBITION
ENDPOINT: cytotoxicity at 10 µM (%)
Give just the number in %; leave the unit off.

| COMPOUND | UNITS_OF_MEASURE | cytotoxicity at 10 µM |
| --- | --- | --- |
| CCN(CC)Cc1ccc(C(=O)N2CCN(CC(C)O)CC2)cc1 (centres undefined) | % | -12.6 |
| CCOc1ccc(-c2cc(=O)n3c(n2)CCCCC3)cc1 | % | 5.36 |
| CCCn1nc2c(cc1=O)CN(Cc1cc(C)no1)CC2 | % | -11.6 |
| CCO[C@H]1CN(C)C[C@@H]1NC(=O)c1cc(C)nc2ccc(C)cc12 | % | 4.15 |
| CN(C)C(=O)c1ccc(C2CCCN2C(=O)c2cccc3c2OCC3)s1 (centres undefined) | % | 4.1 |

Would you kindly share the measured cytotoxicity at 10 µM for CC1(C)CC(CN2CCC3(CCC(=O)N(CCO)C3)CC2)CCO1 (centres undefined) ?
18

Bench note: what cytotoxicity at 10 µM did OCCC1(NCc2ccc(-n3cccn3)cc2)CCOCC1 show?
-146

Fill blank: measured cytotoxicity at 10 µM of the compound CCN(C)c1ncnc2c1CCN(Cc1ccncc1)CC2 is ____.
-10.7

Return reported cytotoxicity at 10 µM; argument: C[C@]1(O)CN(Cc2ncccc2F)CC[C@@H]1Oc1ccccc1
-21
